Experimental Protocol: yeast display, Sf9 membrane polyspecificity reagent, FACS + sequencing; frameworks hold sequencing errors
Readout Label: polyreactivity (PSR sort gate)

# example entries with known answers
IN: Return polyreactivity (PSR sort gate) (reported value) for this sequence: QVQLVESGGGLVQAGGSLRLSCAASGLTFRWYAMGWYRQEPGKERELVAAISSSGNTNYADSVKGRFTISRDNAKNTVYLQMNSLKPGDSAVYYCAASYYSYPPGLSQTRLTYYYWGQGTQLTVSS
OUT: high polyreactivity

IN: Give polyreactivity (PSR sort gate) for QVQHVESGGGLVQAGGSLRLSCAASGSIFPVYAMRWYRQAPGKEREFVASIRWRGGSTSYADSVKGRFTISRDNAKNTVYLQMNSLKPEDTAVYYCNAVYYSWAQSARFDYWGQGTQVTVSS
OUT: low polyreactivity

IN: Please list polyreactivity (PSR sort gate) recorded for the sequence QVQLVESGGGLVQAGGSLRLSCAASGRNFTSNTMGWYRQAPGTETELVAAITSSGGSMYYADSVKGRFTISRDNAKNTVYLQMNSLKPEDTAVYYCAADTIGYHYWYDYWGQGTQVTVSS
OUT: low polyreactivity

IN: Write down polyreactivity (PSR sort gate) measured for item QVQLVESGGGLVQAGGSLRLSCAASGRTFTEYAMGWYRQAPGKERELGAGIDSGSGSTYYADSVKGRFTISRDYAKNTVYLQMNSLHPEDTAVYYCAARDVWSPYDTDVDYWGQGTQVTVSS
OUT: low polyreactivity

Turning to the following sequence.
IN: Answer with the recorded polyreactivity (PSR sort gate) of QVQLVESGGGLVQAGGSLRLSCSASGLTLAPNAMGWYRQAPGKERELVAAITRSGGDTYYADSVKGRFTISRDNAKNTVYLQMNSLKPEDTAVYYCAADYWFRYGTYEYWGQGTQVTVSS only.
OUT: high polyreactivity
